B1: ZER1 (parent)
chain: PILRLLPQGISPVSQHWATWALYN

Variants of: B1
Experiment Description: protein stability index of a GFP-peptide fusion (GPS, HEK-293T) (PSI 1-6); higher = more stable;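 also: lentivirally expressed fusions sorted by FACS into six bins by GFP to DsRed ratio, PSI derived from sequencing read proportions per bin multiplied by bin number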
Assay Context: c terminus: a fixed tail appended
Test Readout: protein stability index

[[record]]
mutation_annotation = "G9S"
test_readout = "protein stability index"
recorded_result = 2.01

[[record]]
mutation_annotation = "I2C"
test_readout = "protein stability index"
recorded_result = 2.98

[[record]]
mutation_annotation = "I2T"
test_readout = "protein stability index"
recorded_result = 2.92

[[record]]
mutation_annotation = "P1R"
test_readout = "protein stability index"
recorded_result = 2

[[record]]
mutation_annotation = "P7W"
test_readout = "protein stability index"
recorded_result = 1.97

[[record]]
mutation_annotation = "G9I"
test_readout = "protein stability index"
recorded_result = 2.95

[[record]]
mutation_annotation = "Y23N"
test_readout = "protein stability index"
recorded_result = 2.92

[[record]]
mutation_annotation = "Y23H"
test_readout = "protein stability index"
recorded_result = 3.01

[[record]]
mutation_annotation = "G9Q"
test_readout = "protein stability index"
recorded_result = 1.97

[[record]]
mutation_annotation = "S11M"
test_readout = "protein stability index"
recorded_result = 1.99

[[record]]
mutation_annotation = "L3R"
test_readout = "protein stability index"
recorded_result = 1.95

